Experiment: gradient 5% acetonitrile 3 min, to 50% in 2 min, to 85% in 15 min, held 3 min, 100 µL/min
Conditions: column: Zorbax Extend-C18 2.1 x 50 mm; eluents: water / acetonitrile, 0.1% formic acid
readoutLabel: RP-LC retention time (s)

1. CC(C)OCCCNC(=O)C1CC(=O)N(c2n[nH]c3cc(Br)ccc23)C1 (centres undefined) :: 690
2. O=C(NCCc1csc(-c2ccc(F)cc2)n1)c1ccco1 :: 868
3. COc1ccccc1-c1nc(Cn2nnc(-c3nc(-c4ccccc4)no3)c2C)c(C)o1 :: 1140
4. CN(C)C[C@@H]1CN(c2ncccn2)C[C@H]1NS(=O)(=O)c1ccc(C#N)cc1 :: 589
5. Cc1cc(C)c(S(=O)(=O)N2CCCC2c2nc(-c3ccccc3)no2)c(C)c1 (centres undefined) :: 1230
6. COc1ccc(CCNC(=O)Cn2nc3n(c2=O)CCCCC3)cc1OC :: 641
7. Cc1nn(-c2nc(-c3ccc(F)cc3)cs2)c(C)c1CC(=O)Nc1ccccc1 :: 1150
8. CCCc1cc(N2CCN(C(=O)c3cccnc3)CC2)nc2nnc(CC)n12 :: 580
9. O=C(NCCCS(=O)(=O)N1CCN(c2ncccn2)CC1)C1CC1 :: 608
10. COc1ccc(CC(=O)N2CCCC(c3nnc(-c4ccccc4F)s3)C2)cc1OC (centres undefined) :: 794
11. CCc1cccc(NC(=O)Cn2c(=O)c3cc(C)nn3c3ncccc32)c1 :: 767
12. O=C(NCc1cccs1)C1CN(S(=O)(=O)c2cccnc2)CC12CCCCC2 (centres undefined) :: 856
13. Cc1cc(C)cc(-n2ccnc(NC(=O)Nc3ccc(F)c(Cl)c3)c2=O)c1 :: 1150
14. CCOc1ccccc1NC(=O)Nc1ccc(CC(=O)NCC(F)(F)F)cc1 :: 815
15. CCN1c2ccc(C)cc2C(=O)NC12CCN(C(=O)c1ccc(C)cc1C)CC2 :: 902
16. CCN(Cc1ccccc1)C(=O)CN1C(=O)C2CCCCN2c2ccc(S(=O)(=O)N(C)C)cc21 (centres undefined) :: 647
17. COc1ccc(C2CC(=O)c3c(C)nn(-c4nc5ccccc5[nH]4)c3C2)c(OC)c1 (centres undefined) :: 1020
18. O=C(NCC1CCCO1)C1CCN(Cc2cc3ccccc3n2Cc2ccc(F)cc2)CC1 (centres undefined) :: 702
19. COc1ccc(N2C(=O)C3N=NN(Cc4nc(-c5ccc(OC(C)C)cc5)no4)C3C2=O)cc1OC (centres undefined) :: 841

###

Assay: gradient 5% acetonitrile 3 min, to 50% in 2 min, to 85% in 15 min, held 3 min, 100 µL/min
Settings: column: Zorbax Extend-C18 2.1 x 50 mm; eluents: water / acetonitrile, 0.1% formic acid
readoutLabel: RP-LC retention time

1) Cc1c(O)cnc2nn(-c3ccccc3)c(=N)n12 :: 822 s
2) CCCCS(=O)(=O)N1CCCC(c2nnc(C)s2)C1 (configuration not stated) :: 689 s
3) COc1ccc(OC)c(NC(=O)Cn2c(=O)nc(NC3CCCC3)c3ccccc32)c1 :: 740 s
4) Cc1nnc(NC(=O)CN2CCCCC2c2nc(C3CC3)no2)s1 (configuration not stated) :: 755 s
5) C=CCN1CCN(c2nc3cc(C(=O)OC)ccc3c(=O)n2-c2cccc(Cl)c2)CC1 :: 681 s
6) O=C(c1ccsc1)N1CCCC1c1nc(CCOCC2CCCC2)no1 (configuration not stated) :: 980 s
7) CC(NC(=O)C1CCN(c2cnc3nccnc3c2)CC1)c1ccccc1 (configuration not stated) :: 705 s

###

Test: gradient 5% acetonitrile 3 min, to 50% in 2 min, to 85% in 15 min, held 3 min, 100 µL/min
Settings: column: Zorbax Extend-C18 2.1 x 50 mm; eluents: water / acetonitrile, 0.1% formic acid
readoutLabel: RP-LC retention time (s)

1) COc1cc(NCc2ccccc2O)c2ncccc2c1 :: 758
2) CCn1cc(S(=O)(=O)N2CCCN(S(=O)(=O)c3ccccc3)CCC(=O)NCC2)cn1 :: 702
3) Cn1cc(-c2cc3n(n2)CCC(=O)N3CCCC(=O)NCC2COCCO2)c2ccccc21 (stereo not given) :: 680
4) Cc1ccc(Oc2cccc(C(=O)Nc3ccc(-c4cn5ccccc5n4)cc3)c2)nn1 :: 568
5) COc1ccccc1OCC(=O)NCc1ccsc1 :: 747
6) Cc1cccc(Cn2nc3c(S(=O)(=O)N4CCOCC4)cccn3c2=O)c1 :: 777
7) CCOC(=O)c1ccc(NC(=O)N2CCCC2c2cc(C(C)C)no2)cc1 (stereo not given) :: 942
8) CCc1cc(C2CCCN2C(=O)c2cnn3c(C(F)(F)F)cc(-c4ccco4)nc23)on1 (stereo not given) :: 870
9) Cc1cc(NC(=O)c2ccccc2C(F)(F)F)sn1 :: 713
10) Cc1ccc(CNC(=O)C2CCCN(c3nnc4ccccn34)C2)cc1 (stereo not given) :: 705

###

Experiment: gradient 5% acetonitrile 3 min, to 50% in 2 min, to 85% in 15 min, held 3 min, 100 µL/min
Conditions: column: Zorbax Extend-C18 2.1 x 50 mm; eluents: water / acetonitrile, 0.1% formic acid
RP-LC retention time values, listed per item
readoutLabel: RP-LC retention time

1. COc1ccc(C2Cn3cnc(C(=O)N4CCC(C(=O)NCCC5=CCCCC5)CC4)c3CO2)cc1 (centres undefined) :: 831 s
2. Cc1cnc(C(=O)NCC2CCCCC(=O)N2)cn1 (centres undefined) :: 593 s
3. Cc1ccc(C)c(C(=O)Nc2cccn3nc(C(C)C)nc23)c1 :: 1010 s
4. CCOc1ccc(NC(=O)N2CCCC2c2nc(-c3ccccc3OC)no2)cc1 (centres undefined) :: 859 s

###

Experiment: gradient 5% acetonitrile 3 min, to 50% in 2 min, to 85% in 15 min, held 3 min, 100 µL/min
Details: column: Zorbax Extend-C18 2.1 x 50 mm; eluents: water / acetonitrile, 0.1% formic acid
This section presents compounds with their documented RP-LC retention time values.
readoutLabel: RP-LC retention time

1) Cc1cccc(-c2csc3c(=O)n(Cc4cc(=O)n5ccccc5n4)cnc23)c1 :: 831 s
2) Cc1ccc(C)c(NC(=O)Cn2ncc3c(c2=O)N(C2CC2)C(=O)CS3)c1 :: 732 s
3) Cc1sc(-c2cc(C(F)(F)F)on2)cc1S(=O)(=O)NC1CC1 :: 1040 s
4) CCCCn1cc(S(=O)(=O)Nc2ccc(F)cc2C)c2cccnc21 :: 989 s
5) CCOC(=O)c1c(C)[nH]c(C(=O)N2CCCC(C(=O)NCc3ccccc3OC)C2)c1C (centres undefined) :: 785 s
6) Cc1ccc(N2C(=O)C3N=NN(c4ccc(F)cc4)C3C2=O)cc1C (centres undefined) :: 1050 s
7) CCOC(=O)c1c(C)[nH]c(C)c1S(=O)(=O)N1CCC(C(=O)N2CCc3ccccc3C2)CC1 :: 837 s
8) CC(NC(=O)Cn1c(=O)c2cccn2c2ccccc21)c1ccc2c(c1)OCCO2 (centres undefined) :: 794 s
9) Cc1sc(NC(=O)C(C)C)nc1-c1ccc2c(c1)N(C)C(=O)CO2 :: 831 s

###

Assay: gradient 5% acetonitrile 3 min, to 50% in 2 min, to 85% in 15 min, held 3 min, 100 µL/min
Conditions: column: Zorbax Extend-C18 2.1 x 50 mm; eluents: water / acetonitrile, 0.1% formic acid
readoutLabel: RP-LC retention time (s)

1. COC(=O)c1ccc(NC(=O)C(=O)NCC2CCN(C(=O)Oc3ccccc3)CC2)cc1 :: 868
2. Cc1nnc(-c2ccc3ccn(CC(=O)N4CCN(c5ncccn5)CC4)c3c2)o1 :: 692
3. COc1ccc(NC(=O)c2cc3ccccc3c(=O)o2)c([N+](=O)[O-])c1 :: 920
4. COc1cc(C2CC(=O)c3c(C)nc(N4CCN(c5ccccn5)CC4)nc3C2)cc(OC)c1OC (stereo not drawn) :: 678
5. O=C(COc1ccccc1-c1nnc(-c2ccccc2)o1)NCc1ccco1 :: 961
6. CCCCN(CCNc1ncnc2onc(-c3ccccc3OC)c12)Cc1ccco1 :: 726
7. COc1ccc(OC)c(NC(=O)N2CCc3c(c(-c4nnc(-c5ccc(F)cc5)o4)nn3C)C2)c1 :: 876
8. COC(=O)c1c(C)[nH]c(C(=O)N2CCC(CC(=O)N(C)Cc3ccco3)CC2)c1C :: 728

###

Test: gradient 5% acetonitrile 3 min, to 50% in 2 min, to 85% in 15 min, held 3 min, 100 µL/min
Settings: column: Zorbax Extend-C18 2.1 x 50 mm; eluents: water / acetonitrile, 0.1% formic acid
readoutLabel: RP-LC retention time (s)

1. O=S(=O)(c1ccc2c(c1)CCC2)N1CC(c2nc(CCOCc3ccccc3)no2)C1 :: 1140
2. CCn1c(C(=O)Nc2cc(C)cc(C)c2)cc2sc(Cl)cc21 :: 1110
3. O=C(N[C@H]1C[C@@H]2C[C@H]1CN2C(=O)NCc1ccco1)c1ccccc1 :: 652
4. Cc1cc(N2CCOCC2)nc(N2CCN(C(=O)c3ccc(Br)cc3)CC2)n1 :: 660
5. Cc1noc(C)c1CNC(=O)c1ccc(F)cc1Cl :: 731
6. COc1ccc(-c2nc3cc(C)ccn3c2Nc2ccc3c(c2)OCO3)cc1 :: 646
7. CCC(=O)N(CC(=O)N1CCc2sccc2C1COc1cccc(OC)c1)CC1CCCO1 (stereo not drawn) :: 858
8. COc1ccccc1NC(=O)NC(C)(C)CC(C)(C)C :: 1010
9. CC1=C(c2ccc(C)cc2)S(=O)(=O)N=C1N1CCCN(C(=O)c2ccoc2)CC1 :: 786
10. COC(=O)CSCC(=O)Nc1cc(C(F)(F)F)ccc1Cl :: 613
11. CCOc1ccccc1NC(=O)Cn1nc2cc(-c3ccc(OC)cc3)nc(C)n2c1=O :: 1020
12. CC(=O)Nc1ccc(S(=O)(=O)N2CCN(c3cc(C)c4ccccc4n3)CC2)cc1 :: 632
13. COc1cc(OC)cc(C(=O)N2CCCC2COc2ccc(C(=O)N3CCCC3)cc2)c1 (stereo not drawn) :: 807
